# Test system: male mice (ICR)
# METHOD_DESCRIPTION: Muscle relaxation activity by grip strength test (forelimbs)
# Format: in vivo
# CONDITION_PARAMETERS: intraperitoneal, dose 200 (unit not given)
ENDPOINT_LABEL: Grip strength, percentage compared to the vehicle only (100%)

Use the examples below as a reference point.
{"columns": ["COMPOUND", "ASSAY_RESULT"],
 "data": [
  ["CC1(C)O[C@H](CCOS(N)(=O)=O)[C@@H](Cc2ccccc2Cl)O1 [Example 138]", "200 (70.1%)"],
  ["CC1(C)OC(COS(N)(=O)=O)C(c2ccccc2Cl)O1 (stereo not drawn) [Example 4]", "200 (56.5%)"],
  ["CC1(C)O[C@@H](COS(N)(=O)=O)[C@H](c2c(Cl)cccc2Cl)O1 [Example 52]", "200 (28.2%)"],
  ["CC1(C)O[C@H](CCOS(N)(=O)=O)[C@@H](Cc2ccccc2)O1 [Example 114]", "200 (75.4%)"],
  ["CC1(C)O[C@H](COS(N)(=O)=O)[C@@H](Cc2ccccc2)O1 [Example 122]", "200 (61.6%)"]
]}

Item: CCC1(CC)O[C@@H](COS(N)(=O)=O)[C@H](c2ccccc2)O1 [Example 108] | Grip strength, percentage compared to the vehicle only (100%): 200 (66.8%)

Item: Cc1ccccc1[C@@H]1OC(C)(C)O[C@H]1COS(N)(=O)=O [Example 92] | Grip strength, percentage compared to the vehicle only (100%): 200 (46.2%)

Item: CC1(C)O[C@@H](CCOS(N)(=O)=O)[C@H](c2ccccc2)O1 [Example 130] | Grip strength, percentage compared to the vehicle only (100%): 200 (91.4%)

Item: NS(=O)(=O)OCC[C@H]1OC2(CCCCC2)O[C@@H]1Cc1ccccc1 [Example 120] | Grip strength, percentage compared to the vehicle only (100%): 200 (80.5%)

Item: NS(=O)(=O)OCC[C@@H]1OC2(CCCCC2)O[C@H]1c1ccccc1 [Example 136] | Grip strength, percentage compared to the vehicle only (100%): 200 (80.8%)

Item: CC1O[C@@H](COS(N)(=O)=O)[C@H](c2ccccc2Cl)O1 (stereo partly drawn) [Example 6] | Grip strength, percentage compared to the vehicle only (100%): 200 (44.8%)

Item: CCC1(CC)O[C@@H](COS(N)(=O)=O)[C@H](c2ccccc2Cl)O1 [Example 8] | Grip strength, percentage compared to the vehicle only (100%): 200 (59.6%)

Item: Nc1ccccc1[C@@H]1OC2(CCCCC2)O[C@H]1COS(N)(=O)=O [Example 74] | Grip strength, percentage compared to the vehicle only (100%): 200 (88.1%)

Item: NS(=O)(=O)OCC[C@H]1OC2(CCCC2)O[C@@H]1Cc1ccccc1Cl [Example 142] | Grip strength, percentage compared to the vehicle only (100%): 200 (66.8%)
